Tested on: K-562 leukemia
Assay: NCI tumour cell line growth inhibition, 48 h
Some molecules, each annotated with its measured TGI.

Entry O=C(N/N=C\C=C\c1ccc([N+](=O)[O-])o1)C(=O)N/N=C\C=C\c1ccc([N+](=O)[O-])o1 has what TGI?
> 100 µM

Next record, please: Cc1ccc(S(=O)(=O)N/N=C2/CCCOC2)cc1
> 100 µM

Next record, please: O=C(NCP(=O)(c1ccccc1)c1ccccc1)OCc1ccccc1
> 100 µM

Next record, please: COC(=O)c1cc2c(cc1Cl)Sc1nnc(Nc3ccc(C)cc3)n1S2(=O)=O
33.4 µM

Next record, please: CSc1cc(Cl)c(C)cc1S(=O)(=O)NC(=O)NNc1cccc(C(F)(F)F)n1
> 100 µM

Next record, please: O=C(Nc1cc(Cl)c(Cl)cc1Cl)C(=O)C1C(=O)NC(=S)NC1=O
> 100 µM

Next record, please: COCCCNc1nc(N)c(C#N)c(C#N)c1C#N
> 10 µM

----------
Test system: PC-3 prostate
Test: NCI tumour cell line growth inhibition, 48 h
valueKind: GI50

Some solved entries appear below for comparison.
{"columns": ["compound", "GI50"],
 "data": [
  ["COc1ccc(-c2nc3ccccn3c2/C=C/C(=O)c2cc(OC)c(OC)c(OC)c2)cc1OC", "3.71 µM"],
  ["NS(=O)(=O)c1ccc(-c2ccc3c(NC(=O)C4CC4)n[nH]c3c2)cc1", "> 25 µM"],
  ["Cc1cc(C)c(NC(=O)c2sc3nc4c(cc3c2N)C(=O)CCC4)c(C)c1", "1.96 µM"]
]}

Please provide the recorded GI50 for CC12OC(C(=O)C13CC3)C1C(=O)c3ccc4c(ccc5ccccc54)c3C(=O)C12 (centres undefined) , tested on PC-3 prostate.
19 µM

Next record, please: COc1ccc(C(=O)c2cc(C)c(OC)c(C)c2)c(OC)c1O
0.0402 µM

Next record, please: COc1ccc(-c2[nH]c3ccc(OC)cc3c2/C=C(\C#N)S(=O)(=O)c2ccccc2)cc1
0.533 µM

Next record, please: O=c1cc(NCC(O)CN2CCCC2)n(Cc2ccccc2)c(=O)n1Cc1ccccc1 (centres undefined)
26.9 µM

Next record, please: CC(C)c1ccc(-c2cc(-c3cn[nH]c3-c3ccccn3)ccn2)cc1
9 µM

Next record, please: CC1(C)C(=O)/C(=C\c2cccnc2)C[C@]2(C)[C@H]3CC[C@@H]4[C@H]5[C@H](C(=O)/C=C/c6cccnc6)CC[C@]5(C(=O)O)CC[C@@]4(C)[C@]3(C)CC[C@@H]12
2.41 µM

Next record, please: C=C(C)[C@@H]1CC[C@]2(CO)CC[C@]3(C)[C@H](CC[C@@H]4[C@@]5(C)C=C(C#N)C(=O)C(C)(C)[C@@H]5CC[C@]43C)[C@@H]12
1.57 µM

Next record, please: COc1cc2c(cc1OCCCCC(=O)Nc1cc3c4ccccc4ccc3c3ccccc13)N=C[C@@H]1CCCN1C2=O
5.4 µM

Next record, please: O=C1c2cccnc2-c2nc(-c3ccc(Cl)cc3)cc3c2c1nc1ccccc13
47 µM

----------
Tested on: RXF 393 renal
Assay: NCI tumour cell line growth inhibition, 48 h
Some compounds, each annotated with its measured TGI.

Some solved entries appear below for comparison.
{"columns": ["compound", "testedOn", "recordedValue"],
 "data": [
  ["CCCN(CCC)C(=O)c1c([N+](=O)[O-])cc(C(F)(F)F)cc1[N+](=O)[O-]", "RXF 393 renal", "79.7 µM"],
  ["CNC(=S)/N=C(\\N)N(C)C", "RXF 393 renal", "> 100 µM"],
  ["O=C1c2ccccc2C(=O)N1CCCCNOCCCN1C(=O)c2ccccc2C1=O", "RXF 393 renal", "> 100 µM"],
  ["CCOC(=O)CNC(=O)N(CC)C12CC3CC(CC(C3)C1)C2", "RXF 393 renal", "388 µM"],
  ["CCOC(C)O[C@H]1C(=O)OCC1(C)C (stereo partly specified)", "RXF 393 renal", "> 100 µM"]
]}

Field: next compound
Entry O=c1cc(NCC(O)CN2CCCC2)n(Cc2ccccc2)c(=O)n1Cc1ccccc1 (stereo unspecified) has what TGI?
> 100 µM
